Every entry's value here was drawn from the supplement of paper PMC3545927.

SYSTEM: furin, P09958;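 further: purified furin at 1:10 enzyme:substrate in 50 mM HEPES pH 7.5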
Sequence (P09958 whole entry): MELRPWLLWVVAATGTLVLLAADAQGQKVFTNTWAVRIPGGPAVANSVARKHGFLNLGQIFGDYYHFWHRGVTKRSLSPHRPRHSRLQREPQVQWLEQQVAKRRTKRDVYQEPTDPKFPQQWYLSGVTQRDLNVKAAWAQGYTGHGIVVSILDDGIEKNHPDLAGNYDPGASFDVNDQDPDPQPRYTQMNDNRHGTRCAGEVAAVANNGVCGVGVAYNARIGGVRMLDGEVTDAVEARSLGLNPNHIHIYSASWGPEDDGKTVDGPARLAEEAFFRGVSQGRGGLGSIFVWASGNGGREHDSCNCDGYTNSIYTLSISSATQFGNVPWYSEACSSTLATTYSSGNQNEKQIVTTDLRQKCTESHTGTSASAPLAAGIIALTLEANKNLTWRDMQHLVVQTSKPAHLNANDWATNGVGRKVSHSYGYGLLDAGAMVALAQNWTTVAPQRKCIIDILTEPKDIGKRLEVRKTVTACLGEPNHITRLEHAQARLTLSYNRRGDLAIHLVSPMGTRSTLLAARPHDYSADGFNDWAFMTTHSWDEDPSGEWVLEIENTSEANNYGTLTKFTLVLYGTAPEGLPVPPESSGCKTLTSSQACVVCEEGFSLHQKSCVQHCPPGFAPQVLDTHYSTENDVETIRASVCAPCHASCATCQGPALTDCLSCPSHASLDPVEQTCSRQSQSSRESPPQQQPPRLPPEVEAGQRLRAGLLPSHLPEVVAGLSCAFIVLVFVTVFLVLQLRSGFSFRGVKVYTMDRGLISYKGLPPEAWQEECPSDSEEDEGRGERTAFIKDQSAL
EXPERIMENT NOTES: furin cleavage Z-score vs untreated control; higher = more cleavage, active = 3.5 or more, inactive = 1 or less, 8 variable residues between constant flanks
STUDY CONDITIONS: 30 min
Some of the results follow. The hit rate among all sequences tested is not known here.
Write down one outcome, taken from class 1 = active, class 0 = inactive

# count of solved cases: 5
>>> label_class("CAVVCCPMSYAGNASASA [HC120]")
"class 0"
>>> label_class("CAPRRRARSLAGNASASA [FS-2479]")
"class 1"
>>> label_class("CALYREFDEMAGNASASA [HC1011]")
"class 0"
>>> label_class("CARNFRFLSSAGNASASA [FS-3004]")
"class 0"
>>> label_class("CAMEECSCHLAGNASASA [HC1740]")
"class 0"

Hi team, can someone confirm the assay call for CAPVVPQSFQAGNASASA [HC769] ?
class 0

Hi team, can someone confirm the assay call for CAACIRKRRLAGNASASA [FS-1582] ?
class 1

Hi team, can someone confirm the assay call for CARRYRGNDSAGNASASA [FS-3072] ?
class 0

Hi team, can someone confirm the assay call for CARRRRARSSAGNASASA [FS-3061] ?
class 1

Hi team, can someone confirm the assay call for CAVVCCSFSYAGNASASA [HC2047] ?
class 0
